assay: Initial polymorphism assessment: solubility of AP1189 freebase in solvent systems (aliquot addition); assay type: physicochemical; settings: organic solvent or mixture; Ethanol; ambient, gently heated to ca. 40 °C if solid remained
property: solubility

Inquiry: Could you please provide reported solubility for NC(N)=N/N=C/C=C/c1cccn1-c1ccccc1[N+](=O)[O-] [AP1189] ? Thanks!
Reply text: ≥ 13 mg/mL

---

Assay: Initial polymorphism assessment: solubility of AP1189 freebase in solvent systems (aliquot addition)
Type: physicochemical
Conditions: organic solvent or mixture; 90% 2-Propanol: 10% Water (% v/v) (calculated aw 0.6); ambient, gently heated to ca. 40 °C if solid remained
Experimental: An initial polymorphism assessment was carried out in order to identify any potential alternate forms. The initial polymorphism assessment was carried out as follows: To ca. 7 mg of freebase Pattern 1 from DCM evaporation the appropriate solvent system was added in aliquots of 50 μL and if solid remained the vial was gently heated to ca. 40 °C to aid dissolution. […]
property: solubility

Inquiry: Return the recorded solubility value; entry: NC(N)=N/N=C/C=C/c1cccn1-c1ccccc1[N+](=O)[O-]
Reply text: ≥ 10 mg/mL

---

assay: Thermodynamic solubility in buffer at 24 h (HPLC of supernatant); assay type: physicochemical; settings: 0.2 m hcl/kcl, pH 1.29, 0.2 M HCl/KCl, initial pH 2.05 → 1.24, 24 h pH 1.29, input 83* mM (estimated), ambient temperature; as free-base
property: solubility at 24 h

Inquiry: Complete the entry with solubility at 24 h for NC(N)=N/N=C/C=C/c1cccn1-c1ccccc1[N+](=O)[O-] [AP1189 freebase Pattern 1]
Reply text: > 44.1 mM

---

test: Initial polymorphism assessment: solubility of AP1189 freebase in solvent systems (aliquot addition); type: physicochemical; details: organic solvent or mixture; Methylisobutyl Ketone; ambient, gently heated to ca. 40 °C if solid remained
property: solubility

Inquiry: Please look at this compound and report its solubility: NC(N)=N/N=C/C=C/c1cccn1-c1ccccc1[N+](=O)[O-]
Reply text: < 7000 µg/mL

---

assay: Initial polymorphism assessment: solubility of AP1189 freebase in solvent systems (aliquot addition); format: physicochemical; conditions: organic solvent or mixture; Heptane; ambient, gently heated to ca. 40 °C if solid remained
property: solubility

Inquiry: Consider the compound NC(N)=N/N=C/C=C/c1cccn1-c1ccccc1[N+](=O)[O-] . State its measured solubility.
Reply text: < 7000 µg/mL

---

test: Initial polymorphism assessment: solubility of AP1189 freebase in solvent systems (aliquot addition); type: physicochemical; conditions: organic solvent or mixture; 2-Methyl THF; ambient, gently heated to ca. 40 °C if solid remained
property: solubility

Inquiry: Read off the recorded solubility for NC(N)=N/N=C/C=C/c1cccn1-c1ccccc1[N+](=O)[O-] [AP1189]
Reply text: ≥ 10000 µg/mL

---

Test: Initial polymorphism assessment: solubility of AP1189 freebase in solvent systems (aliquot addition)
Type: physicochemical
Conditions: organic solvent or mixture; 98.5% Ethanol : 1.5% Water (% v/v) (calculated aw 0.2); ambient, gently heated to ca. 40 °C if solid remained
Protocol: An initial polymorphism assessment was carried out in order to identify any potential alternate forms. The initial polymorphism assessment was carried out as follows: To ca. 7 mg of freebase Pattern 1 from DCM evaporation the appropriate solvent system was added in aliquots of 50 μL and if solid remained the vial was gently heated to ca. 40 °C to aid dissolution. […]
property: solubility

Inquiry: Tell me its solubility given NC(N)=N/N=C/C=C/c1cccn1-c1ccccc1[N+](=O)[O-] as the entry.
Reply text: ≥ 15 mg/mL
